# Test system: U-251
# assay-method-text: NCI tumour cell line growth inhibition, 48 h
Activity calls are given as the source filed them. No stated cut-off is given here; in the data, active = GI50 up to about 1.1 µM and inactive = higher.
Pick one: 1 (yes) (active), 0 (no) (inactive)

Observe how each entry below is paired with its result.
How was CCOC(=O)c1cc(C2CCN(CC(C)CC)C2=S)c(-c2cc(C)no2)[nH]1 (stereo not drawn) classified in this test?
0 (no)

Short answer needed: outcome of this test for `c1cncc(CNc2ncn[nH]2)c1` ?
0 (no)

Next:
Look up the recorded call for N#CC(NCc1cccc(CNC(C#N)c2ccccc2)c1)c1ccccc1 (stereo not drawn) in this test.
0 (no)

For this molecule, state the assay outcome: NC(CCc1ccccc1)(C(=O)O)c1ccccc1 (stereo not drawn)
0 (no)

State the result this test recorded for COC(=O)/C=C/C1C(C(=O)OC)C2(C(=O)OC)CCC1(C(=O)OC)N2 (stereo not drawn) .
0 (no)

Outcome logged for `N#Cc1c(O)c(/N=N/c2ccccc2F)c(=O)n2c1[nH]c1ccccc12` in this assay:
0 (no)

Recorded test outcome, item `Oc1ccc(Cn2c(-c3ccc(O)c(O)c3)nc3ccccc32)cc1O`
0 (no)

---

Item-by-item account of GI50
# System: SK-MEL-5
# assay-method-text: NCI tumour cell line growth inhibition, 48 h
The source made the active and inactive calls. Rule as the data show it: active = GI50 up to about 1.1 µM and inactive = higher.

The examples below pair each entry with its known result.
# lookup: SK-MEL-5 GI50, key = COC1=CC(=O)c2ccccc2C1(C)C1=NC(C)(C)CO1 (stereo not given)
> 100 µM (inactive)

Fill in GI50 for `CCCCCCCCCCCCCC[S+](C)C` tested with SK-MEL-5.
1.53 µM (inactive)

GET GI50 where system = SK-MEL-5 and item = NS(=O)(=O)c1cc2c(cc1Cl)NC(Cc1ccccc1)NS2(=O)=O (stereo not given) [BENZYLHYDROCHLOROTHIAZIDE]
> 100 µM (inactive)

# return GI50 of `CN(C)CCCCN1CCc2c(n(C)c3ccccc23)C1=O` (system: SK-MEL-5)
17.7 µM (inactive)

New cases:
State GI50 (SK-MEL-5) of O=[N+]([O-])c1ccc(N2N=C(c3c(O)ccc4ccccc34)CC2c2ccc(Cl)cc2)c([N+](=O)[O-])c1 (stereo not given) .
20.4 µM (inactive)

---

# System: UACC-257
# assay-method-text: NCI tumour cell line growth inhibition, 48 h
The source made the active and inactive calls. No stated cut-off is given here; in the data, active = GI50 up to about 1.1 µM and inactive = higher.
Hi! Could you answer with just one of these? t = active, f = inactive

Reference set, count: 10
What was the test verdict on Cc1ccc(NC(=O)CCC(=O)C2Cc3ccccc3C2=O)cc1C (stereo not given) ?
f

Status in this test for `Nc1nc2cc(CNc3ccc(C(=O)O)cc3)ccc2nc1-c1ccccc1` ?
f

Short answer needed: outcome of this test for `C[C@H](C/C=C/C(C)(C)O)[C@H]1CC[C@@]2(C)[C@@H]3CC[C@H]4C(C)(C)[C@@H](O)CC[C@@]45C[C@@]35CC[C@]12C` ?
f

Hi, do you know how COc1ccc2c(c1O)C13CCN(C)C(C2)C1CCC1(C3)OCCO1 (stereo not given) came out in this test?
f

Returns: the outcome recorded for `O=C(O)c1nc2ccc(C(F)(F)F)cc2[nH]c1=O` in this assay.
f

Query: recorded result category for Cc1ccc(C2=Nc3c(N)nc(N)nc3NC(c3ccccc3)C2)cc1 (stereo not given) in this test
f

// return assay outcome for `COc1cc(OC)cc(-n2c(N)c(-c3nc4ccccc4n3C)c3ccc([N+](=O)[O-])cc3c2=O)c1`
f

What classification did `CN(C)CCCCN1CCc2c(n(C)c3ccccc23)C1=O` end up with in this test?
f

Hey, what did the test say about C[C@]12CCc3nn(-c4ccccc4)nc3C1CC[C@@H]1C2CC[C@]2(C)C(=O)CCC12 (stereo not given in full) ?
f

What is the recorded call for this compound in the test? COc1ccc2c(c1)C(=O)C1CCC(=O)N1C2c1ccc2c(c1)OCO2 (stereo not given)
f

Next:
Fill in: this test's call for `Cc1c(O)nc(-n2[nH]c3c(c2=O)CCCC3)[nH]c1=O` is ___
f

Kindly provide the recorded test outcome for the following compound: CC1(C)S[C@@H]2[C@H](NC(=O)[C@H](N)c3ccccc3)C(=O)N2[C@H]1C(=O)O [AMPICILLIN]
f

Recorded test outcome, item `CC(C)C(=O)/C=C/c1ccccc1`
f

// param item: `Cn1c(-c2cccs2)cc(-c2ccsc2)c1-c1ccsc1` ; yields the recorded call
f

Dear all, I need the recorded test outcome for `Cc1c(NC(=O)CSC(=S)N(C)C)c(=O)n(-c2ccccc2)n1C` , thank you.
f

Outcome? CCCC(=O)Nc1cc(/C=C/C(=O)N2CC(CCl)c3c2cc(OCc2ccccc2)c2[nH]cc(C)c32)n(C)c1 (stereo not given)
t

Assay outcome for NC(CCc1ccccc1)(C(=O)O)c1ccccc1 (stereo not given) : what was it?
f

GET /call?item= `Cc1c2ccnc(-c3ccccc3)c2cc2c1[nH]c1ccccc12` returns the recorded outcome of this test.
f

Dear colleague, could you share the recorded outcome for COc1cccc2c1C(=O)c1c(O)c3c(c(O)c1C2=O)C[C@@](O)(/C(C)=N/NC(=O)c1ccccc1)C[C@@H]3OC1CC(N)C(O)C(C)O1 (stereo not given in full) when you have a moment?
t

Assay outcome for `COc1ccc2[nH]c3ccc4cc[n+](CCN5CCC(C6CCN(CC[n+]7ccc8ccc9[nH]c%10ccc(OC)cc%10c9c8c7)CC6)CC5)cc4c3c2c1` : what was it?
f
